Kindly supply the reported pKi values for the records listed here.
- Target or test system: UniProt P04150
- Sequence (P04150 whole entry): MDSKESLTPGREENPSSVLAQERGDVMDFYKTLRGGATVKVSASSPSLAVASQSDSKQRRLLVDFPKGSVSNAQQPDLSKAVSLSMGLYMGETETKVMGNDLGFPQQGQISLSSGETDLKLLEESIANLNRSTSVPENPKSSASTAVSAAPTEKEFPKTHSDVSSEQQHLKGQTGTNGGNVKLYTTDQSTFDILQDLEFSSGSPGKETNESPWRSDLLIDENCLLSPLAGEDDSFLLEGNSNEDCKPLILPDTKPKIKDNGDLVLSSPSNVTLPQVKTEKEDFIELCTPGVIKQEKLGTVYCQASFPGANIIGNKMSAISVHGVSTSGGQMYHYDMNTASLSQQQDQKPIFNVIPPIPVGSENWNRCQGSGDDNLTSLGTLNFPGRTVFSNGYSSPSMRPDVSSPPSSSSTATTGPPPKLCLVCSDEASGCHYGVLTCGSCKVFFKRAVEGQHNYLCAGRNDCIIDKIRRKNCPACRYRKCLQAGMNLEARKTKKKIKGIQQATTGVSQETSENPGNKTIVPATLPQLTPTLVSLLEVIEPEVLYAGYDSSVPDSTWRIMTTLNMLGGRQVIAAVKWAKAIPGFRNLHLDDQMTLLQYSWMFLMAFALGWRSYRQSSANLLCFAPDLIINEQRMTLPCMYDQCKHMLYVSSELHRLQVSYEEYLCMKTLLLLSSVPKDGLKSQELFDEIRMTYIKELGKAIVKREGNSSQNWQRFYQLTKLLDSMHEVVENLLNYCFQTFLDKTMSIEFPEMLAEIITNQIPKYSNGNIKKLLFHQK
Answer as the number alone; pKi is minus log10 of concentration in mol/L.

Give a short answer stating reported pKi for "C[C@@](c1ccc(F)cc1)(c1c[nH]c2c(NS(C)(=O)=O)cccc12)C1CC1" .
6.78

Give a short answer stating reported pKi for COC(=O)[C@@H]1CC2=CC(=O)CC[C@]2(C)C2C1C1CC[C@@]3(CCC(=O)O3)[C@@]1(C)[C@H]1O[C@@H]21 (some centres undefined) [EPIERENONE] .
5.75

Give a short answer stating reported pKi for CC(=O)S[C@@H]1CC2=CC(=O)CC[C@]2(C)[C@H]2CC[C@@]3(C)[C@@H](CC[C@@]34CCC(=O)O4)[C@H]12 [SPIRONOLACTONE] .
7.49

Give a short answer stating reported pKi for "C[C@](c1ccc(F)cc1)(c1c[nH]c2c(NS(C)(=O)=O)cccc12)C1CC1" .
6.41
